System: HIV-1/101-Glu
Assay: Inhibition of HIV-1 induced syncytium formation in CEM cells, RT mutant 101-Glu
Assay type: cell-based
Conditions: Human immunodeficiency virus 1, CCRF-CEM, 96 h
value_type: EC50 (µg/mL)
Dear colleague, please return just the value in µg/mL, with no unit written.

{"compound_smiles": "CSSC(=Nc1ccc(Cl)c(C=NOC(C)C)c1)c1ccoc1C", "target_of_assay": "HIV-1/101-Glu", "value_type": "EC50", "endpoint_result": 0.13}
{"compound_smiles": "CC(C)=CCOc1cc(N=C(SSc2ccccc2)c2ccoc2C)ccc1Cl", "target_of_assay": "HIV-1/101-Glu", "value_type": "EC50", "endpoint_result": 0.2}
{"compound_smiles": "Cc1occc1C(=Nc1ccc(Cl)c(C=NOC(C)(C)C)c1)SSc1ccccc1", "target_of_assay": "HIV-1/101-Glu", "value_type": "EC50", "endpoint_result": 0.2}
{"compound_smiles": "CSSC(=Nc1ccc(Cl)c(OCCC(C)C)c1)c1ccoc1C", "target_of_assay": "HIV-1/101-Glu", "value_type": "EC50", "endpoint_result": 0.13}
{"compound_smiles": "CSSC(=Nc1ccc(Cl)c(OCC=C(C)C)c1)c1ccoc1C", "target_of_assay": "HIV-1/101-Glu", "value_type": "EC50", "endpoint_result": 0.027}

## Input What does the record list as EC50 for CSSC(=Nc1ccc(Cl)c(COc2ccccc2Cl)c1)c1ccoc1C ?
## Output 0.34

## Input For CSSC(=Nc1ccc(Cl)c(OCC=C(C)C)c1)c1cc(C)oc1C , what is its reported EC50?
## Output 0.28

## Input Consider the molecule CSSC(=Nc1ccc(Cl)c(C=NOC(C)(C)C)c1)c1ccoc1C and give its measured EC50.
## Output 0.14

----------
EC50 values for the compounds below.
Test system: HIV-1/184-Ile
Assay: Inhibition of HIV-1 induced syncytium formation in CEM cells, RT mutant 184-Ile
Format: cell-based
Details: Human immunodeficiency virus 1, CCRF-CEM, 96 h
Kindly answer with a numeric value in µg/mL, unit omitted.

{"compound": "CC(C)=CCOc1cc(N=C(SSc2ccccc2)c2ccoc2C)ccc1Cl [Compound 10]", "EC50 [µg/mL]": 0.09}
{"compound": "Cc1occc1C(=Nc1ccc(Cl)c(C=NOC(C)(C)C)c1)SSc1ccccc1 [Compound 8]", "EC50 [µg/mL]": 0.03}
{"compound": "CSSC(=Nc1ccc(Cl)c(C=NOC(C)C)c1)c1ccoc1C [Compound 5]", "EC50 [µg/mL]": 0.013}
{"compound": "CSSC(=Nc1ccc(Cl)c(C=NOC(C)(C)C)c1)c1ccoc1C [Compound 3]", "EC50 [µg/mL]": 0.03}
{"compound": "CSSC(=Nc1ccc(Cl)c(OCC=C(C)C)c1)c1ccoc1C [Compound 4]", "EC50 [µg/mL]": 0.0032}

## Input Fill in the blank: the reported EC50 of CSSC(=Nc1ccc(Cl)c(OCCC(C)C)c1)c1ccoc1C [Compound 6] is ____.
## Output 0.02

## Input I would be grateful if you could share the reported EC50 for CSSC(=Nc1ccc(Cl)c(OCC=C(C)C)c1)c1cc(C)oc1C [Compound 9] .
## Output 0.05

## Input Reported EC50 for CSSC(=Nc1ccc(Cl)c(COc2ccccc2Cl)c1)c1ccoc1C [Compound 7] : what is it?
## Output 0.02
